The measured values listed here are drawn from patent US20150274828A1.

Tgt: T1, EGFR-Fc fusion protein (recombinant EGFR extracellular region-Fc) (human, UniProt P00533 25-645)
T1 construct: extracellular domain; not shown: Fc part supplied by vector pABG1
Assay notes: BLI ForteBio QKe, biotinylated EGFR-Fc on streptavidin sensor, antibody 20 nM; fold reduction of affinity, parent Ame55 = 1;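 also: parent antibody affinity set as 1, with values giving the fold drop in affinity of each mutant antibody relative to that parent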
Property name: Affinity change

Binder | Endpoint result
Ame55 mutant, light chain 93A (antibody, V domains shown, Mutant of Ame55) VH: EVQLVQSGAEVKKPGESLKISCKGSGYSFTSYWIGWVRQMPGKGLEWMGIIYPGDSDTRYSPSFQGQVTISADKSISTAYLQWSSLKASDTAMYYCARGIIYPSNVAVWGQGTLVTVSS VL: SYELTQPPSVSVAPGQTARITCSGDALGDKYASWYQQKPGQAPVLVIYEDSKRPSGIPERFSGSNSGNTATLTISGTQAEDEADYYCSVWDGAWGMPVFGGGTKLTVLG | > 10 fold
Ame55 mutant, heavy chain 104A (antibody, V domains shown, Mutant of Ame55) VH: EVQLVQSGAEVKKPGESLKISCKGSGYSFTSYWIGWVRQMPGKGLEWMGIIYPGDSDTRYSPSFQGQVTISADKSISTAYLQWSSLKASDTAMYYCARGIIYPANVAVWGQGTLVTVSS VL: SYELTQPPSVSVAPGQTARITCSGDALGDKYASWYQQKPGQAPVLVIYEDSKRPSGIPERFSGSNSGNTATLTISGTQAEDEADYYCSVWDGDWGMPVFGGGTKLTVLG | 3 fold
Ame55 mutant, heavy chain 55A (antibody, V domains shown, Mutant of Ame55) VH: EVQLVQSGAEVKKPGESLKISCKGSGYSFTSYWIGWVRQMPGKGLEWMGIIYPGASDTRYSPSFQGQVTISADKSISTAYLQWSSLKASDTAMYYCARGIIYPSNVAVWGQGTLVTVSS VL: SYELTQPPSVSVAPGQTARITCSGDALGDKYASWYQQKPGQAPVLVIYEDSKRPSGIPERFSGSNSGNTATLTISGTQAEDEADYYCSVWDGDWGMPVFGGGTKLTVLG | > 100 fold

For the next question, use this binder.
Looking up Ame55 mutant, light chain 95A (antibody, V domains shown, Mutant of Ame55) VH: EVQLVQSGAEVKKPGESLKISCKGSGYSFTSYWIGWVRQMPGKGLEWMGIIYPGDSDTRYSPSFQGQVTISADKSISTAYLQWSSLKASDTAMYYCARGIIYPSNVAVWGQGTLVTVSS VL: SYELTQPPSVSVAPGQTARITCSGDALGDKYASWYQQKPGQAPVLVIYEDSKRPSGIPERFSGSNSGNTATLTISGTQAEDEADYYCSVWDGDWAMPVFGGGTKLTVLG , I see its Affinity change listed as > 10 fold
